tested on: SW-620 colon; assay: NCI tumour cell line growth inhibition, 48 h
Exercise: state measured TGI for each of the compounds provided.

Enquiry: Would you kindly share the measured TGI for COc1ccc(-n2c(-c3ccc(NC(=O)CCCl)cc3)nnc2-c2cc(OC)c(OC)c(OC)c2)cc1 ?
Return: > 14.3 µM

Enquiry: Would you kindly share the measured TGI for COc1c2c(c(OC)c3c(=O)cc(C/C(=N/NC(=O)C[n+]4ccccc4)C(=O)Nc4cc(C)ccc4C)oc13)OCO2 ?
Return: > 100 µM

Enquiry: Would you kindly share the measured TGI for N#CCN(Cc1ccccc1)[C@H]1CCC[C@]1(O)/C=C/c1ccc2c(c1)OCO2 ?
Return: 43.3 µM

Enquiry: Would you kindly share the measured TGI for C=CCN1C(=O)/C(=C/c2ccccc2)N=C1SC/C=C/C ?
Return: > 100 µM

Enquiry: Would you kindly share the measured TGI for CC(C)OP(=O)(OC(C)C)c1nn(-c2ccc([N+](=O)[O-])cc2)c(=N)s1 ?
Return: > 100 µM

Enquiry: Would you kindly share the measured TGI for CC(C)(C)c1ccc(Oc2ccc(C#N)c(C#N)c2)c(C(C)(C)C)c1 ?
Return: > 100 µM

Enquiry: Would you kindly share the measured TGI for O=C1C2c3[nH]c4ccccc4c3C3CCSCC3C2C(=O)N1c1ccccc1 (stereo not given) ?
Return: > 100 µM

Enquiry: Would you kindly share the measured TGI for OCc1ccc(N(Cc2ccc(F)cc2)C2CCC2)cc1Cl ?
Return: 16.8 µM

Enquiry: Would you kindly share the measured TGI for Nc1c(O)c2c(c(O)c1Cl)C(=O)C=CC2=O ?
Return: 9.93 µM

Enquiry: Would you kindly share the measured TGI for COc1ccc2c(c1OC)C(Br)CCC(Br)(Br)C2=O (stereo not given) ?
Return: 6.61 µM

Enquiry: Would you kindly share the measured TGI for C(=C\c1ccccc1)/Cn1nc(-c2ccccc2)nc1-c1cnccn1 ?
Return: > 100 µM

Enquiry: Would you kindly share the measured TGI for C=C[C@@]1(C)CC(=O)[C@]2(O)[C@@]3(C)[C@@H](OC(C)=O)CCC(C)(C)[C@@H]3[C@H](O)[C@H](OC(C)=O)[C@@]2(C)O1 ?
Return: > 100 µM

Enquiry: Would you kindly share the measured TGI for NCCCn1c2c(c3ccccc3c1=O)C(=O)c1cc3c(cc1-2)OCO3 ?
Return: 2.35 µM

Enquiry: Would you kindly share the measured TGI for OC12c3ccccc3C1CCCCCCCCCC21OCCCO1 (stereo not given) ?
Return: > 100 µM

Enquiry: Would you kindly share the measured TGI for CC1=C(C(=O)Nc2ccc(F)c(Cl)c2)C(c2cccc(O)c2)NC(=S)N1 (stereo not given) ?
Return: > 50 µM

Enquiry: Would you kindly share the measured TGI for COc1cccc2c1C(=O)c1c(O)c3c(c(O)c1C2=O)CC(O)(C(C)=O)CC3OC1CC([N+](C)(C)C)C(O)C(C)O1 (stereo not given) ?
Return: > 100 µM

Enquiry: Would you kindly share the measured TGI for Cn1cc(-c2nc(-c3c[nH]c4ncccc34)cs2)c2cc(Cl)ccc21 ?
Return: > 100 µM

Enquiry: Would you kindly share the measured TGI for CN(OC(=O)CC(=O)c1ccccc1)C(=O)Cc1ccccc1 ?
Return: > 100 µM

Enquiry: Would you kindly share the measured TGI for COC(=O)CC(SCCO)SCCO ?
Return: > 100 µM

Enquiry: Would you kindly share the measured TGI for COC(=O)[C@H](C)[C@H]1CC[C@@](C)([C@H]2CC3C(C)(C)[C@H]4CCC(C)=C[C@H]4C[C@@]3(C)O2)OO1 (stereo not given in full) ?
Return: 27 µM

The reported numbers originate from PubChem BioAssay (NCI).
